study.target: UniProtKB P04585
test: HIV-protease inhibitory activity assay (FRET peptide substrate)
stated.conditions: Test Example 1
endpoint: pIC50
Conceptually, pIC50 converts a concentration in mol/L into minus its log10.

Worked set:
>  <compound>
COc1ccc(S(=O)(=O)N(CC(C)C)CC(O)C(Cc2ccc(NCC3CCCC3c3sc4c(c3C(=O)O)CC(C)(C)CC4)cc2)NC(=O)OC2COC3(C)OCCC23)cc1 (stereo not shown) [Compound I-670]

>  <endpoint>
pIC50

>  <result.value>
8.57

$$$$
>  <compound>
COc1ccc(S(=O)(=O)N(CC(C)C)CC(O)C(Cc2ccc(N(C)Cc3cc(Oc4ccccn4)ccc3-c3sc4c(c3C(=O)O)CC(C)(C)CC4)cc2)NC(=O)OC2COC3(C)OCCC23)cc1 (stereo not shown)

>  <endpoint>
pIC50

>  <result.value>
8.44

$$$$

Task: Any idea what its pIC50 is? The compound is COc1ccc(S(=O)(=O)N(CC(C)C)CC(O)C(Cc2ccc(OCc3ncsc3-c3sc4c(c3C(=O)O)CC(C)(C)CC4)cc2)NC(=O)OC2COC3OCCC23)cc1 (stereo not shown)
Result: 9.02

Task: COc1ccc(S(=O)(=O)N(CC(C)C)CC(O)C(Cc2ccc(OCc3ccc4sc(-c5ccc(F)cc5)c(C(=O)O)c4c3)cc2)NC(=O)OC2COC3OCCC23)cc1 (stereo not shown) ?
Result: 9.14
